Target: T1, human CD27 (human, UniProt P26842 21-192, limits assumed)
T1 construct: The construct (soluble form, tags) is not described; also called TNFRSF7
T1 sequence (P26842 21-192 limits assumed): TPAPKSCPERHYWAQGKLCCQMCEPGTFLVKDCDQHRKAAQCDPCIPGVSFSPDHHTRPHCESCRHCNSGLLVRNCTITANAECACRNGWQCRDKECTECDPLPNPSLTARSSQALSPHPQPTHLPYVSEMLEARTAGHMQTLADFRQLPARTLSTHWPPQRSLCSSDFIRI
Test: Kd table for the mAb titration on human CD27 (OD readout, Figure 4 A); method not given

>  <Binder>
TP6 (antibody, V domains shown, also called TP06) VH: QVQLVESGGGVVQPGRSLRLSCAASGFTFSSYAMHWVRQAPGKGLEWVAVISYDGSNKYYADSVKGRFTISRDNSKNTLYLQMNSLRAEDTAVYYCARGYQGGYSNFDLWGQGTLVTVSS VL: DIQMTQSPSTLSASVGDRVTITCRASQSISSWLAWYQQKPGKAPKLLIYDASSLESGVPSRFSGSGSGTDFTLTISSLQPEDFATYYCQQSYSTPYTFGQGTKLEIK

>  <Measurement units>
nM

>  <Kd>
0.6

$$$$
>  <Binder>
TP11 (antibody, V domains shown) VH: QVQLVESGGGVVQPGRSLRLSCAASGFTFSSYAMHWVRQAPGKGLEWVAVISYDGSNKYYADSVKGRFTISRDNSKNTLYLQMNSLRAEDTAVYYCARGVSGSYARGFDVWGQGTLVTVSS VL: DIQMTQSPSTLSASVGDRVTITCRASQSISSWLAWYQQKPGKAPKLLIYDASSLESGVPSRFSGSGSGTEFTLTISSLQPEDFATYYCQQSYSTPWTFGQGTKVEIK

>  <Measurement units>
nM

>  <Kd>
0.2

$$$$
>  <Binder>
TP29 (antibody, V domains shown) VH: EVQLVESGGGVVQPGRSLRLSCAASGFTFSNAWMSWVRQAPGKGLEWVSAISGSGGSTYYADSVKGRFTISRDNSKNTLYLQMNSLRAEDTAVYYCARRALSLSYFDYWGQGTLVTVSS VL: QSVVTQPPSVSGAPGQRVTISCTGSSSNIGAGYDVHWYQQLPGTAPKLLIYGNSNRPSGVPDRFSGSKSGTSASLAITGLQAEDEADYYCQSYDSSLSGYVFGTGTKVTVL

>  <Measurement units>
nM

>  <Kd>
0.3

$$$$
>  <Binder>
TP23 (antibody, V domains shown) VH: QVQLVQSGAEVKKPGASVKVSCKASGYTFTSYGISWVRQAPGQGLEWMGWISAYNGNTNYAQKLQGRVTMTTDTSTSTAYMELRSLRSDDTAVYYCARGGAGHYDYFDYWGQGTLVTVSS VL: QSVVTQPPSVSGAPGQRVTISCTGSSSNIGAGYDVHWYQQLPGTAPKLLIYGNSNRPSGVPDRFSGSKSGTSASLAITGLQAEDEADYYCQSYDSSLSGYVFGTGTKVTVL

>  <Measurement units>
nM

>  <Kd>
5

$$$$
